test.protocol: protease stability score; higher = more stable; yeast display proteolysis, trypsin and chymotrypsin;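 note: relative to predicted unfolded state with 0 unfolded-like and 1 meaning tenfold more protease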
Entry flag: MET if protease stability score reaches 1; NOT MET if it does not.

# chain, group.label
records = [
    ("SEDDEQAHRTIEIWLRASRTGNEEELERLADPHDKIEFNGREHHGREEFLKIMKHLRVHHMDVRDRTLIGDKINIDVILDLHFNGRRHIIELTTILVKINGRWFFKSWIFI", "MET"),
    ("TQEKREADHSNKLEEHSHQTGDERLLTELADPHVKIFVDGQELHGREEFLRWVEEAGVKHFHVDHVRYQGDKLFVHGHFNINGREREVRLIYRKVNGKWYLHQMDIN", "MET"),
    ("DDIEEDVKEFLRLMKEMNETGDEHRLTEMADPNVRVHIGDKHFHGREDAERLWRRADVFHHIKIKEYELQGDKLYMNVEVDGKFDGKRIRHDVTEIVTKVNGRWLLRSIRFD", "NOT MET"),
    ("TEEEKIFKKLMHLILNAFLTGDEELLHEYVDPHARVRVGDKEFHGRENIIHALRMLFHHLGIDHIEIDKVDVFNGRMEVHGTFHFDGKNVESILRFDVYNGRLKKEEIEWR", "NOT MET"),
    ("DEEHEMAKRASEKFVKDWVTGNFEVLRENLDPHVRLDINGVKVHGRELVWHYIAKRLRFMGVDHTEMEVHHREVQGNKLITDMEERIHVGDYHEERRVVLISQKINGKWLVKSIHEE", "MET"),
]

Now take the following sequence into account.
Determine whether this sequence has protease stability score no lower than 1: SQLEVASTEALELLRFSLETGDWEFLLRLADPNTRIEINGVTFHGREDMEEIMEEKFRRFKNVKVELDVKEVHFQGDKVRIRVVEFWKVDGQEIFIDSRIVMIKVNGRWVYKELRVH
NOT MET
